From: ChEMBL document CHEMBL1201862

# Tested on: IGROV-1
# method-description: NCI tumour cell line growth inhibition, 48 h
Activity calls are given as the source filed them. No stated cut-off is given here; in the data, active = GI50 up to about 1.1 µM and inactive = higher.
Answer with one of the outcomes given here: active, inactive

Some solved cases for reference:
Fill in: this test's call for Cc1ccc(/C=C2\CCS(=O)(=O)c3ccccc3C2=O)cc1 is ___
inactive

Fill in: this test's call for O=C(/C=C/C=C/c1ccccc1)CCc1ccccc1 is ___
inactive

Next:
Fill in: this test's call for COc1ccc2c(CN3CCCCC3CO)cc3cc(OC)c(OC)cc3c2c1 (configuration not stated) is ___
inactive

Fill in: this test's call for CC1=C(c2cc(C(=O)Nc3nccs3)nc(NC#N)n2)Sc2ccccc2N1 is ___
inactive

Fill in: this test's call for CN(C(=O)C12C3C4C1C1C4(C(=O)C45C6C7C4C4C5C6C74C)C3C12C)C(C)(C)C (configuration not stated) is ___
inactive

Fill in: this test's call for CC(=O)OCC(OC(C)=O)C1C[C@H]2O[C@@H]3[C@H](C[C@H]2O1)O[C@@]1(C[C@@H]3C)C[C@H](C)[C@@H]2O[C@]3(C[C@@H]2O1)C[C@H]1O[C@H]2[C@H](C)[C@H]4OC(=O)CC5CC[C@H]6OC7[C@H]8O[C@]9(CC[C@H]%10CC(O)(CO)[C@H](CC[C@H]%11C[C@@H](C)C(O)(CO)C(C[C@@H]4O[C@H]2C[C@H]1O3)O%11)O%10)CC8O[C@@H]7[C@@H](O9)[C@H]6O5 (some centres not stated) is ___
active

Fill in: this test's call for CC1(C)CS(=O)(=O)CC(C)(C)C(=N/N)/C1=N\N is ___
inactive
